Data origin, for the record: ChEMBL document CHEMBL4414600

- METHOD DESCRIPTION: Oral bioavailability in rat at 23.6 mg/kg
- Assay type: ADME, organism-based
- EXPERIMENTAL CONDITIONS: in vivo
MEASUREMENT NAME: bioavailability (%)
Answers are plain numbers, in %.

Quick one: bioavailability for CN(C)C/C=C/C(=O)Nc1cccc(-c2c(-c3ccccc3)oc3ncnc(N[C@H](CO)c4ccccc4)c23)c1 ?
41.5

###

For each record, write down the corresponding IC50.
- TARGET OF ASSAY: Epidermal growth factor receptor (Homo sapiens, UniProt P00533, L858R/T790M)
- Sequence (P00533 25-1210 T790M/L858R limits assumed): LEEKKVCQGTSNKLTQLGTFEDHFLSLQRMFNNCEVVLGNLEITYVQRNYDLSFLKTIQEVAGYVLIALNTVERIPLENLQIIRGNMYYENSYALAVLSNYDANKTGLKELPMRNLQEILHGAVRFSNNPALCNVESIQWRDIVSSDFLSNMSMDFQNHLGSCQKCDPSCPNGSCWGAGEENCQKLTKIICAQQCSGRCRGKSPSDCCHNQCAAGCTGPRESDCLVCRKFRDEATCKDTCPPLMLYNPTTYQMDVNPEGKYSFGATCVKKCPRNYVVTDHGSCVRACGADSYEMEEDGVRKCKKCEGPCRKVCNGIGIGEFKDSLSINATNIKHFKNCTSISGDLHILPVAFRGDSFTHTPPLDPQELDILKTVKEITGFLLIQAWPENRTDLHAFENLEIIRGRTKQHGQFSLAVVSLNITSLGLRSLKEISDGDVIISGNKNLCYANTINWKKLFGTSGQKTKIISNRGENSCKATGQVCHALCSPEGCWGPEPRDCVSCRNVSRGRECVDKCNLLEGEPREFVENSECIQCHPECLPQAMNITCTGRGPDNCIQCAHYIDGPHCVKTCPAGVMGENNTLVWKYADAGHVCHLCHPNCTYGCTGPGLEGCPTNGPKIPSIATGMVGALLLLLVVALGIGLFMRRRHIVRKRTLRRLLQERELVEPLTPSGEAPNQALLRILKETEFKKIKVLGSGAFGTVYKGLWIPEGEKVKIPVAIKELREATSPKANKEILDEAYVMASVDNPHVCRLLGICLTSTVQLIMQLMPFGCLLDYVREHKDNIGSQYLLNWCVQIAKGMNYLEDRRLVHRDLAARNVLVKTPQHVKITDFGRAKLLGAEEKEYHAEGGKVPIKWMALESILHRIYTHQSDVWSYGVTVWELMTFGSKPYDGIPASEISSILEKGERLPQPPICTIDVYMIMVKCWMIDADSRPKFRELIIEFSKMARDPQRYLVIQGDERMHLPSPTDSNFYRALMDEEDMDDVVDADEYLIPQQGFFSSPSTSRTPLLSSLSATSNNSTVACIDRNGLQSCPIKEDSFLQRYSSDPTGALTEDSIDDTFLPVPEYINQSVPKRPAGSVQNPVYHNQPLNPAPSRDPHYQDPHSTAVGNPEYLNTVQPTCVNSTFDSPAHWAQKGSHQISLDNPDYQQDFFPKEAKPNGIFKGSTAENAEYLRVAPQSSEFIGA
Answers are plain numbers, in nM.

In the examples that follow, each entry is paired with its recorded IC50.
C=CC(=O)Nc1cccc(-c2c(C)sc3ncnc(N[C@H](CO)c4ccccc4)c23)c1	1260
CC#CC(=O)Nc1cccc(-c2c(-c3ccccc3)oc3ncnc(N[C@H](CO)c4ccccc4)c23)c1	6370
CCN(CC)C/C=C/C(=O)Nc1cccc(-c2c(-c3ccccc3)oc3ncnc(N[C@H](CO)c4ccccc4)c23)c1	131

Proceed to the following item.
# query: IC50 of entry C=CC(=O)Nc1cccc(-c2c(C)oc3ncnc(N[C@H](CO)c4ccccc4)c23)c1
1320
